- measurement.target: recombinant human MMP13 catalytic domain (CD) (Homo sapiens)
- Construct: catalytic domain (CD) construct encompassing residues 20-274 (SWISS-PROT P45452)
- experimental.protocol: MMP-13 catalytic domain FRET enzyme assay
- conditions.used: recombinant human MMP-13 catalytic domain
Reported IC50 is given for each of the following compounds.

CC(=O)N[C@H]1CC[C@H](C2CC(c3cc(C(=O)NCc4ccc5c(c4)NC(=O)CO5)nc(C)n3)=NO2)CC1 (some centres unmarked) ... < 10 nM
COc1ccc(CNC(=O)c2cc(C3=NOC(c4ccc(CN(C)C)cc4)C3)ccn2)cc1 (centres unmarked) ... > 1000 nM
COc1cc(CNC(=O)c2cc(C3=NO[C@H]([C@H]4CC[C@H](NC(C)=O)CC4)C3)nc(C)n2)ccc1F [drawing 1032] ... 10 to 100 nM

In plain terms, COc1cc(CNC(=O)c2cc(C3=NOC(c4ccc(N5CCCC5)nn4)C3)nc(C)n2)ccc1F (centres unmarked) has a documented IC50 of > 1000 nM

Memo: COc1cc(CNC(=O)c2cc(C3=NOC(C4CCN(S(=O)(=O)c5cn(C)cn5)CC4)C3)nc(C)n2)ccc1F (centres unmarked) , reported IC50: < 10 nM

Form: compound = COc1cc(CNC(=O)c2cc(C3=NOC(c4ccc(=O)n(C5CC5)c4)C3)nc(C)n2)ccc1F (centres unmarked) ; IC50 = < 10 nM

// IC50 lookup, compound = COc1cc(CNC(=O)c2cc(C3=NOC(C4CCN(S(=O)(=O)C5CC5)CC4)C3)nc(C)n2)ccc1F (centres unmarked) , result: 10 to 100 nM

The reported IC50 of the compound COc1cc(CNC(=O)c2cc(C3=NOC(c4cnn(CCO)c4)C3)nc(C)n2)ccc1F (centres unmarked) was > 1000 nM

---

- measurement.target: recombinant human MMP13 catalytic domain (CD) (Homo sapiens, UniProt P45452)
- Construct: catalytic domain (CD) construct encompassing residues 20-274 (SWISS-PROT P45452)
- experimental.protocol: MMP-13 catalytic domain FRET enzyme assay
- conditions.used: recombinant human MMP-13 catalytic domain
pIC50: −log10 of the molar value.
The entries below are paired with their reported pIC50.

Past entries and their recorded results:
COc1cccc(CNC(=O)c2cc(C3=NOC(C)(c4ccc(Cl)cc4)C3)ccn2)c1 (centres unmarked) ... < 6.00
COc1cc(CNC(=O)c2cc(C3=NNC(c4cccnc4)C3)nc(C)n2)ccc1F (centres unmarked) ... 7.00 to 8.00
COc1cc(CNC(=O)c2cc(C3=NOC(c4ccn(CC(=O)N(C)C)c(=O)c4)C3)nc(C)n2)ccc1F (centres unmarked) ... 7.00 to 8.00
COCC(=O)N1CCC(C2CC(c3cc(C(=O)NCc4ccc(F)c(OC)c4)nc(C)n3)=NO2)CC1 (centres unmarked) ... 7.00 to 8.00

pIC50 reading for COc1ccc(CNC(=O)c2cc(C3=NOC(C)(c4ccc(CO)cc4)C3)nc(C)n2)cc1 (centres unmarked) : 6.00 to 7.00

---

- measurement.target: recombinant human MMP13 catalytic domain (CD) (Homo sapiens)
- Construct: catalytic domain (CD) construct encompassing residues 20-274 (SWISS-PROT P45452)
- experimental.protocol: MMP-13 catalytic domain FRET enzyme assay
- conditions.used: recombinant human MMP-13 catalytic domain
pIC50: −log10 of the molar value.
metric: pIC50

COc1cc(CNC(=O)c2cc(C3=NOC(c4ccn(CC(=O)NC(C)C)c(=O)c4)C3)nc(C)n2)ccc1F (centres unmarked) ... 7.00 to 8.00

We now examine a further molecule.
The recorded pIC50 for entry COc1cc(CNC(=O)c2cc(C3=NOC(c4ccc(=O)n(CC(=O)N(C)C)c4)C3)nc(C)n2)ccc1F (centres unmarked) equals 7.00 to 8.00

---

# key: entry, value: pIC50
- measurement.target: recombinant human MMP13 catalytic domain (CD) (Homo sapiens)
- Construct: catalytic domain (CD) construct encompassing residues 20-274 (SWISS-PROT P45452)
- experimental.protocol: MMP-13 catalytic domain FRET enzyme assay
- conditions.used: recombinant human MMP-13 catalytic domain
pIC50: −log10 of the molar value.

Below: 8 molecules and their reported pIC50.
COc1cc(CNC(=O)c2cc(C3=NO[C@H]([C@@H]4CO[C@@H](CO)CO4)C3)nc(C)n2)ccc1F ... 7.00 to 8.00
COc1cc(CNC(=O)c2cc(C3=NOC(c4ccc(=O)n(C5CC5)n4)C3)nc(C)n2)ccc1F (stereo not shown) ... 7.00 to 8.00
COc1cc(CNC(=O)c2cc(C3=NOC(c4ccc(=O)n(C(C)C)c4)C3)nc(C)n2)ccc1F (stereo not shown) ... > 8.00
COc1cc(CNC(=O)c2cc(C3=NOC(C(N)=O)C3)nc(C)n2)ccc1F (stereo not shown) ... < 6.00
COc1cc(CNC(=O)c2cc(C3=NO[C@H]([C@H]4CO[C@H](CNC(C)=O)CO4)C3)nc(C)n2)ccc1F ... > 8.00
CCNC(=O)N1CCC(C2CC(c3cc(C(=O)NCc4ccc(F)c(OC)c4)nc(C)n3)=NO2)CC1 (stereo not shown) [drawing 877] ... 7.00 to 8.00
COc1cc(CNC(=O)c2cc(C3=NOC(C4CCN(C(=O)CO)CC4)C3)nc(C)n2)ccc1F (stereo not shown) ... 7.00 to 8.00
CC(=O)NC[C@@H]1CO[C@@H]([C@@H]2CC(c3cc(C(=O)NCc4ccc(F)c(C)c4)nc(C)n3)=NO2)CO1 ... > 8.00

pIC50 recorded for this molecule, COc1cc(CNC(=O)c2cc(C3=NOC(C4CCN(S(=O)(=O)c5nccn5C)CC4)C3)nc(C)n2)ccc1F (stereo not shown) , is > 8.00

Note to self: pIC50 recorded for COc1cc(CNC(=O)c2cc(C3=NO[C@H](c4ccc(=O)n(C5CC5)c4)C3)nc(C)n2)ccc1F was > 8.00

The recorded pIC50 for entry COc1cc(CNC(=O)c2cc(C3=NOC(c4ccc(-c5nc(C)no5)nc4)C3)nc(C)n2)ccc1F (stereo not shown) equals > 8.00

Entry under test: COc1cc(CNC(=O)c2cc(C3=NO[C@@H](C4CCN(C(=O)CO)CC4)C3)nc(C)n2)ccc1F . Its pIC50 was 7.00 to 8.00

Measured pIC50 of CC(=O)N[C@H]1CC[C@H]([C@H]2CC(c3cc(C(=O)NCc4ccc(F)c(C)c4)nc(C)n3)=NO2)CC1 : 7.00 to 8.00

Noted for COc1cc([C@@H](C)NC(=O)c2cc(C3=NOC(c4ccccc4)C3)nc(C)n2)ccc1F (stereo partly shown) : its pIC50 reads < 6.00

Noted for COc1cc(CNC(=O)c2cc(C3=NOC(C4CCN(C(=O)Nc5nccs5)CC4)C3)nc(C)n2)ccc1F (stereo not shown) : its pIC50 reads 7.00 to 8.00

response.value for COc1cc(CNC(=O)c2cc(C3=NO[C@H]([C@H]4CO[C@H](CNC(=O)[C@H](C)O)CO4)C3)nc(C)n2)ccc1F (field: pIC50) = > 8.00

---

Recorded pIC50 by entry
- measurement.target: recombinant human MMP13 catalytic domain (CD) (Homo sapiens)
- Construct: catalytic domain (CD) construct encompassing residues 20-274 (SWISS-PROT P45452)
- experimental.protocol: MMP-13 catalytic domain FRET enzyme assay
- conditions.used: recombinant human MMP-13 catalytic domain
pIC50: −log10 of the molar value.

Reference set (5 entries):
COc1ccc(CNC(=O)c2cc(C3=NO[C@@H](c4ccc(OCCO)cc4)C3)nc(C)n2)cc1 ... 7.00 to 8.00
Cc1nc(C(=O)NCc2ccc3c(c2)OCCO3)cc(C2=NO[C@@H]([C@H]3CO[C@H](CO)CO3)C2)n1 ... < 6.00
COc1cc(CNC(=O)c2cc(C3=NOC(C4CCN(C(=O)C5CCC5)CC4)C3)nc(C)n2)ccc1F (centres unmarked) ... 7.00 to 8.00
Cc1nc(C(=O)NCc2ccc(F)c(Cl)c2)cc(C2=NO[C@@H]([C@H]3CO[C@H](CO)CO3)C2)n1 [drawing 902] ... 6.00 to 7.00
CNC(=O)Cn1cc([C@@H]2CC(c3cc(C(=O)NCc4ccc(F)c(OC)c4)nc(C)n3)=NO2)ccc1=O ... > 8.00

According to the records, this compound CC(=O)N[C@H]1CC[C@H](C2CC(c3cc(C(=O)NCc4ccc(F)c(Cl)c4)nc(C)n3)=NO2)CC1 (some centres unmarked) displays pIC50 of > 8.00

Lab book: pIC50 of COc1cc(CNC(=O)c2cc(C3=NOC(C4CCN(C(=O)CC#N)CC4)C3)nc(C)n2)ccc1F (centres unmarked) [drawing 881] noted as 7.00 to 8.00

Record COc1ccc(C2CC(c3ccnc(C(=O)NCc4cccc(OC)c4)c3)=NO2)cc1 (centres unmarked) , field pIC50: 7.00 to 8.00

Every entry's value here was drawn from patent US9029409B2.
